B1: TMEM175 (parent)
chain: SCTIIFLASIFQLAMWTTALLHQA

# Variants of: B1
# assay-procedure: protein stability index of a GFP-peptide fusion (GPS, HEK-293T) (PSI 1-6); higher = more stable;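 further: lentivirally expressed fusions sorted by FACS into six bins by GFP to DsRed ratio, PSI derived from sequencing read proportions per bin multiplied by bin number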
# protocol-conditions: c terminus: a fixed tail appended
Listed here are variants together with their documented protein stability index.
Number only, no unit.

Worked set:
{"primary-sequence": "SCTIIFLASIFQLAMWTTALLHGA", "protein stability index": 4.5}
{"primary-sequence": "SCTIIFLASIFQLAMWTTAYLHQA", "protein stability index": 3.22}
{"primary-sequence": "SCTIIFLASIFVLAMWTTALLHQA", "protein stability index": 2.25}
{"primary-sequence": "SCTIIFLASIFQLKMWTTALLHQA", "protein stability index": 3.08}
{"primary-sequence": "SCTIIFLASIFQLAMWTTALLCQA", "protein stability index": 3.02}
{"primary-sequence": "DCTIIFLASIFQLAMWTTALLHQA", "protein stability index": 2.62}
{"primary-sequence": "SLTIIFLASIFQLAMWTTALLHQA", "protein stability index": 2.87}
{"primary-sequence": "SCTIIFLASIFQLAMWTTALHHQA", "protein stability index": 3.3}

Request: So what's the measured protein stability index for this one? SCTIIFLASRFQLAMWTTALLHQA
Response: 2.81

Request: For SFTIIFLASIFQLAMWTTALLHQA then?
Response: 2.66

Request: For SCTIIFLASIFQLAMWTTALLHQQ then?
Response: 2.56

Request: For SCTIIFLASIFQLAAWTTALLHQA then?
Response: 3.24

Request: For SMTIIFLASIFQLAMWTTALLHQA then?
Response: 2.59

Request: For SCTIIFLASIFQLAMKTTALLHQA then?
Response: 2.44

Request: For SCTIIFLAAIFQLAMWTTALLHQA then?
Response: 3.6

Request: For SETIIFLASIFQLAMWTTALLHQA then?
Response: 2.64

Request: For SCTIIALASIFQLAMWTTALLHQA then?
Response: 4.41

Request: For SCTIIFLASIFQLAMWTTAWLHQA then?
Response: 1.4

Request: For SCTIIFLASIIQLAMWTTALLHQA then?
Response: 2.56

Request: For SCTIIFLASIFQLAMWTTALLKQA then?
Response: 3.44

Request: For SCTIIFLASIFQLAMWTTAILHQA then?
Response: 3.51

Request: For SCTIIFLASIFQLAEWTTALLHQA then?
Response: 3.53
